system: Escherichia coli; test: Inhibition of MATE-type HmrM in norfloxacin-resistant Escherichia coli KAM32 assessed as norfloxacin antibacterial activity efficacy at 30 uM measured for 18 hrs incubation by CLSI based microplate reader analysis relative to norfloxacin alone
ATTRIBUTE_MEASURED: Efficacy (%)
Give your result in % as a bare value.

Can you look up the measured Efficacy of CN/C(=N\C#N)NCCCCCc1cccc(NS(C)(=O)=O)c1 for me? 38

Using the record for CN/C(=N\C#N)NCCCCCc1cccc(C)c1 , report its Efficacy. 57

So what's the measured Efficacy for this one? CN/C(=N\C#N)NCCCCCc1cccc(S(F)(F)(F)(F)F)c1 71

For the compound shown here, CN/C(=N\C#N)NCCCNC(=O)c1cccc(Cl)c1 , give the reported Efficacy. 0

I am curious: what Efficacy value has been reported for Clc1cccc(CCCCCN2CCOCC2)c1 ? 0

###

test system: Escherichia coli; assay: Inhibition of MATE-type HmrM in norfloxacin-resistant Escherichia coli KAM32 assessed as norfloxacin antibacterial activity by measuring norfloxacin MIC measured for 18 hrs incubation by CLSI based microplate reader analysis
Please go through the items and note down their MIC.
Please format your answer as a value with the unit trailing.

Which measured MIC value corresponds to C#Cc1cccc(CCCCCN/C(=N/C#N)NC)c1 ? 0.04 µg/mL

Consider the compound shown here: CN/C(=N\C#N)NCCCCCc1cccc(S(C)(=O)=O)c1 What is its recorded MIC? 0.04 µg/mL

Find the recorded MIC belonging to CN/C(=N\C#N)NCCCCCc1cccc(I)c1 and report it. 0.056 µg/mL

Sample Clc1cccc(CCCCCN2CCOCC2)c1 — what was its MIC? 0.056 µg/mL

Which MIC is reported for this compound? CN/C(=N\C#N)NCCC[C@@H]1C[C@@H]1c1cccc(Cl)c1 0.032 µg/mL

I am curious: what MIC value has been reported for CN/C(=N\C#N)NCCC[C@H]1C[C@@H]1c1cccc(Cl)c1 ? 0.032 µg/mL

Which value of MIC has been reported for CN/C(=N\C#N)NCCCCc1cccc(Cl)c1 in the records? 0.04 µg/mL

Look up MIC for this compound: CN(C)/C(=N\C#N)N(C)Cc1ccc(-c2cccc(S(F)(F)(F)(F)F)c2)cc1 0.014 µg/mL

State the recorded MIC for this entry: CN/C(=N\C#N)NCCCCCc1cccc(C)c1 0.032 µg/mL

Which MIC is listed for CN/C(=N/C#N)NCC#CC#Cc1cccc(Cl)c1 ? 0.056 µg/mL

###

tested on: Escherichia coli; experiment: Inhibition of MATE-type HmrM in norfloxacin-resistant Escherichia coli KAM32 assessed as norfloxacin antibacterial activity efficacy at 30 uM measured for 18 hrs incubation by CLSI based microplate reader analysis relative to norfloxacin alone
Consider the following compounds; for each one, report its Efficacy.
Lab book: enter the figure in %, no units written.

Need Efficacy, item CN(C)/C(=N\C#N)N(C)CCCC#Cc1cccc(Cl)c1 100

Item under review: CN/C(=N/C#N)NCc1ccc(-c2cccc(Cl)c2)cc1 . Reported Efficacy? 100

// returns reported Efficacy for input CN(C)/C(=N\C#N)N(C)Cc1ccc(-c2cccc(Cl)c2)cc1 100

So what does the record say about Efficacy for CN/C(=N\C#N)NCCC/C=C\c1cccc(Cl)c1 ? 71

Quick one: Efficacy of CN(C)/C(=N\C#N)N(C)CCCC#Cc1cccc(S(F)(F)(F)(F)F)c1 ? 100

What value of Efficacy has been reported for the following compound? CN/C(=N\C#N)NCCCCc1cccc(Cl)c1 38

Find the recorded Efficacy belonging to CN(C)/C(=N\C#N)N(C)Cc1ccc(-c2cccc(S(F)(F)(F)(F)F)c2)cc1 and report it. 100

Would you mind telling me what Efficacy value was observed for CN/C(=N\C#N)NCCCCCc1cccc(Cl)c1 ? 57

Quick check: Efficacy of CN/C(=N\C#N)NCCC[C@H]1C[C@@H]1c1cccc(Cl)c1 ? 57

Dear colleague, I am looking for the recorded Efficacy of the following compound: CN/C(=N\C#N)NCc1cccc(-c2cccc(Cl)c2)c1 38

// Efficacy lookup, key: CN(C)/C(=N\C#N)N(C)CCCCCc1cccc(Cl)c1 71

Data request, read-out Efficacy, for C#Cc1cccc(CCCCCN/C(=N/C#N)NC)c1 57

Which Efficacy is reported for this compound? CN/C(=N\C#N)NCc1ccccc1-c1cccc(Cl)c1 38

What does the record list as Efficacy for CN/C(=N\C#N)NCCCCCc1cccc(I)c1 ? 0

Need Efficacy, item CN/C(=N\C#N)NCCCC#Cc1cccc(Cl)c1 71

Request the reported Efficacy associated with Clc1cccc(CCCCCn2ccnc2)c1 38

What value of Efficacy has been reported for the following compound? CN/C(=N\C#N)NCCC/C=C/c1cccc(Cl)c1 71

Item under review: CN/C(=N\C#N)NCCCCCc1cccc(C#N)c1 . Reported Efficacy? 57

What Efficacy value was documented for this compound, CN/C(=N\C#N)NCCCCCc1cccc(F)c1 ? 38
